Compiled record: IC50 values for UniProt:P42336 across several sources.

Req: Given C[C@H](Nc1ncnc2[nH]cnc12)c1cc2cccc(Cl)c2c(CN2CCC(F)(F)C2)n1 , state its recorded IC50.
Resp: < 10 µM

Req: Given Nc1nc2cc(-c3ccc4nnc(-c5cccnc5)n4c3)ccc2o1 , state its recorded IC50.
Resp: < 10 µM

Req: Given CNC(=O)Nc1ccc(-c2nc(Nc3ccc(C(N)=O)cc3)c3cnn(C)c3n2)cc1 , state its recorded IC50.
Resp: 0.493 µM

Req: Given COC(=O)Nc1cc(C(F)(F)F)c(-c2nc(N3CCOC[C@@H]3C)c3cc(CN4CCN(S(C)(=O)=O)CC4)cn3n2)cn1 , state its recorded IC50.
Resp: 0.00567 µM

Req: Given CS(=O)(=O)N1CCN(c2nc3c(N4CCOCC4)nc(-c4cnc(N)nc4C(F)(F)F)nc3n2CC2CC2)CC1 , state its recorded IC50.
Resp: < 0.01 µM

Req: Given CNCc1cccc2cc([C@H](C)NC(=O)c3c(N)nn4cccnc34)n(-c3ccccc3)c(=O)c12 , state its recorded IC50.
Resp: > 10 µM

Req: Given Nc1cccc(-c2cccc(Oc3cc(=O)[nH]c4ccccc34)c2)c1 , state its recorded IC50.
Resp: 5.59 µM

Req: Given Cc1nn(C)cc1-c1cccc2cc([C@H](C)Nc3ncnc4cccnc34)n(-c3ccccc3)c(=O)c12 , state its recorded IC50.
Resp: 1 to 10 µM
